Biological target: ICAM-1 expressed on cells (JY cells; stimulated endothelial cells) (UniProt P05362 28-532, limits assumed)
Sequence (P05362 28-532 limits assumed): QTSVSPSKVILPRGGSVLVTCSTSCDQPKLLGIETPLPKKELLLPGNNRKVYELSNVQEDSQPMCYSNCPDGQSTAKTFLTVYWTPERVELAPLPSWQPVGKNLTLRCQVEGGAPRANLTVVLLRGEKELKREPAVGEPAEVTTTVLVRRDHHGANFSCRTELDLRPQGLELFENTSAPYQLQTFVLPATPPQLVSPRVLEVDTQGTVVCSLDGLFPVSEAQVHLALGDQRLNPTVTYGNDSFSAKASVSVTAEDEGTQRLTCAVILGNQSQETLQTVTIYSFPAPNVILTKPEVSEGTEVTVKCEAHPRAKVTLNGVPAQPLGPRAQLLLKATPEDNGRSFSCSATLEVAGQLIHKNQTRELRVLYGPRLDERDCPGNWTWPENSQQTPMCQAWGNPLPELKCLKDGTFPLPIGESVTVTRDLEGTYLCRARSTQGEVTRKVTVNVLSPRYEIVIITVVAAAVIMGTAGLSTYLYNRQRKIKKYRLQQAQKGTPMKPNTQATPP
Test: cell-based or functional assay
Bridge positions count the residues as written; N and C are the ends. Ends that are not written are not given here.
Consider the following binders and their measured Percent Inhibition readings.
Please state the figure in percent; there is no need to write the unit.

# example entries with known answers
Request: Return reported Percent Inhibition; argument: CLRLSRIMC (disulfide 1-9) [randomized cyclic peptide CLRLSRIMC (SEQ ID NO: 56)]
Response: 4

Request: Return reported Percent Inhibition; argument: CLLRMRAIC (disulfide 1-9) [CLLRMRAIC (SEQ ID NO: 39), cyclic disulfide-linked peptide]
Response: 27

Request: Return reported Percent Inhibition; argument: CALRMRSIC (disulfide 1-9) [CALRMRSIC (SEQ ID NO: 34), cyclic disulfide-linked peptide]
Response: 7

Pending binder:
Request: Return reported Percent Inhibition; argument: CLLRMASIC (disulfide 1-9) [CLLRMASIC (SEQ ID NO: 38), cyclic disulfide-linked peptide]
Response: 11
